Target: Cyclin-dependent kinase 4/cyclin D1 (Homo sapiens, UniProt P11802)
Experiment: Inhibition of recombinant CDK4/CYCD1 (unknown origin)
measured parameter: IC50

So the reported IC50 for CCc1cccc(CC)c1NC(=O)c1nn(C)c2c1CCc1cnc(Nc3ccc(C(=O)NC4CCN(C)CC4)cc3OC(F)(F)F)nc1-2 , on Cyclin-dependent kinase 4/cyclin D1 (Homo sapiens, UniProt P11802), turned out to be > 10 µM

###

Test system: UACC-257
Test: Antiproliferative activity against human UACC-257 cells assessed as inhibition of cell growth incubated for 72 hrs by celltiter-glo assay
Type: functional, cell-based
Conditions: UACC-257, 72 h
measured parameter: IC50 (nM)
Lab book: enter the figure in nM, no units written.

The compound listed as CCc1cccc(CC)c1NC(=O)c1nn(C)c2c1CCc1cnc(Nc3ccc(C(=O)NC4CCN(C)CC4)cc3OC(F)(F)F)nc1-2 shows IC50 equal to 1870

###

System: MDA-MB-435
Assay: Antiproliferative activity against human MDA-MB-435 cells assessed as inhibition of cell growth incubated for 72 hrs by celltiter-glo assay
Format: functional, cell-based
Settings: MDA-MB-435, 72 h
measured parameter: IC50 (µM)
Output spec: scalar in µM, unitless text.

Record CCc1cccc(CC)c1NC(=O)c1nn(C)c2c1CCc1cnc(Nc3ccc(C(=O)NC4CCN(C)CC4)cc3OC(F)(F)F)nc1-2 , field IC50: 1.96

###

Test system: U2OS
Experiment: Antiproliferative activity against human U2OS cells assessed as inhibition of cell growth incubated for 72 hrs by celltiter-glo assay
Type: functional, cell-based
measured parameter: pIC50
Worth noting: pIC50 values are minus log10 of concentrations stated in mol/L.

Memo: CCc1cccc(CC)c1NC(=O)c1nn(C)c2c1CCc1cnc(Nc3ccc(C(=O)NC4CCN(C)CC4)cc3OC(F)(F)F)nc1-2 , reported pIC50: 5.68

###

Target: MAP kinase-interacting serine/threonine-protein kinase 2 (Homo sapiens)
Test: Inhibition of recombinant MNK2 (unknown origin)
measured parameter: IC50

For this compound ( CCc1cccc(CC)c1NC(=O)c1nn(C)c2c1CCc1cnc(Nc3ccc(C(=O)NC4CCN(C)CC4)cc3OC(F)(F)F)nc1-2 ), measured IC50 is > 10 µM

###

Target: Proto-oncogene tyrosine-protein kinase receptor Ret (Homo sapiens, UniProt P07949)
Assay: Inhibition of recombinant RET (unknown origin)
measured parameter: pIC50
Reminder that pIC50 is minus the log10 of a molar concentration.

Query O=C1c2ccccc2-c2n[nH]c3cccc1c23 yields pIC50 of 5.96

###

Below, each entry is listed alongside its reported IC50.
Target: Tyrosine-protein kinase Lck (Homo sapiens)
Sequence (P06239 whole entry): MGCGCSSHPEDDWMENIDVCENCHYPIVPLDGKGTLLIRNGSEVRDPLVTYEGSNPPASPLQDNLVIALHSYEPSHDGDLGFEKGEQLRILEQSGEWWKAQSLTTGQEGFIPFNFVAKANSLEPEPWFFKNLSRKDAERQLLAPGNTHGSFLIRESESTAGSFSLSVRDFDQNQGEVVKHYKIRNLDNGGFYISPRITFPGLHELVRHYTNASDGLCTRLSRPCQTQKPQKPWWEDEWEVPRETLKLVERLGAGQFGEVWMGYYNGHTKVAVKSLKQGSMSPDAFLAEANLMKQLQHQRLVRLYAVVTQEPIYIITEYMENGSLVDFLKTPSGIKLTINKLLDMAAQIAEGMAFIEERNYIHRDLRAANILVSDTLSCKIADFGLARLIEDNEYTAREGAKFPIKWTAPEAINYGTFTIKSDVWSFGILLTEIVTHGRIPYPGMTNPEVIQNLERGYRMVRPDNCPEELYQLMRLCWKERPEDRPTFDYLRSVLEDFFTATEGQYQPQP
Assay: Inhibition of recombinant LCK (unknown origin)

Lab entry: Tyrosine-protein kinase Lck (Homo sapiens) assay, molecule O=C1c2ccccc2-c2n[nH]c3cccc1c23 , IC50 = > 10 µM

// moving on: another record for IC50
Observed IC50 on Tyrosine-protein kinase Lck (Homo sapiens), entry CCc1cccc(CC)c1NC(=O)c1nn(C)c2c1CCc1cnc(Nc3ccc(C(=O)NC4CCN(C)CC4)cc3OC(F)(F)F)nc1-2 , equals > 10 µM

###

Target: High affinity nerve growth factor receptor (Homo sapiens, UniProt P04629)
Sequence (P04629 whole entry): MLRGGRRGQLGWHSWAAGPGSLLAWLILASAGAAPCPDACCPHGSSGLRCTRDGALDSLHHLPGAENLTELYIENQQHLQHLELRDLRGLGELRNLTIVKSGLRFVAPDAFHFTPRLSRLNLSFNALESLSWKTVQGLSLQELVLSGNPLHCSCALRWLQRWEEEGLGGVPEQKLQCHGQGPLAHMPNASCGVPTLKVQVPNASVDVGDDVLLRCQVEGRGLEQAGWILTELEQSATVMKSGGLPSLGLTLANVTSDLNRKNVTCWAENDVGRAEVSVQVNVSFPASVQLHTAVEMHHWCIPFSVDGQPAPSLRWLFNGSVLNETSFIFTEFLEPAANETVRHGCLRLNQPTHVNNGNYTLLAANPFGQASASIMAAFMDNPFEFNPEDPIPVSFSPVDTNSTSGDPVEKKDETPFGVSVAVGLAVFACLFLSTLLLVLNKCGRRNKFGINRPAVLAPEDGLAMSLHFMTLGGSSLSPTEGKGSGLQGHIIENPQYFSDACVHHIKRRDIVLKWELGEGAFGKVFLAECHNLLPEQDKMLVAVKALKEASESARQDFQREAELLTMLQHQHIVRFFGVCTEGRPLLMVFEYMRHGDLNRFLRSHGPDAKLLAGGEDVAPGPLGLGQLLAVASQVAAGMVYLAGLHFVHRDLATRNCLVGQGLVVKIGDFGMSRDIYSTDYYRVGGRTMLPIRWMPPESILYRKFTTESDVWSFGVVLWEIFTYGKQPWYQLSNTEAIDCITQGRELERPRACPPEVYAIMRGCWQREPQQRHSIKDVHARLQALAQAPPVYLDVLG
Assay: Inhibition of recombinant TRKA (unknown origin)
measured parameter: pIC50
Interpret pIC50 as the negative base-10 log of the concentration measured in mol/L.

# molecule O=C1c2ccccc2-c2n[nH]c3cccc1c23 ; its pIC50 = 7.15

###

Target: CDC7/DBF4 (Cell division cycle 7-related protein kinase/Activator of S phase kinase) (Homo sapiens)
Test: Inhibition of recombinant CDC7/DBF4 (unknown origin)
measured parameter: pIC50
pIC50 is a log-scale quantity: -log10 of the concentration expressed in molar.

Record O=C1c2ccccc2-c2n[nH]c3cccc1c23 , field pIC50: 5.80

###

Target: Fibroblast growth factor receptor 1 (Homo sapiens)
Sequence (P11362 whole entry): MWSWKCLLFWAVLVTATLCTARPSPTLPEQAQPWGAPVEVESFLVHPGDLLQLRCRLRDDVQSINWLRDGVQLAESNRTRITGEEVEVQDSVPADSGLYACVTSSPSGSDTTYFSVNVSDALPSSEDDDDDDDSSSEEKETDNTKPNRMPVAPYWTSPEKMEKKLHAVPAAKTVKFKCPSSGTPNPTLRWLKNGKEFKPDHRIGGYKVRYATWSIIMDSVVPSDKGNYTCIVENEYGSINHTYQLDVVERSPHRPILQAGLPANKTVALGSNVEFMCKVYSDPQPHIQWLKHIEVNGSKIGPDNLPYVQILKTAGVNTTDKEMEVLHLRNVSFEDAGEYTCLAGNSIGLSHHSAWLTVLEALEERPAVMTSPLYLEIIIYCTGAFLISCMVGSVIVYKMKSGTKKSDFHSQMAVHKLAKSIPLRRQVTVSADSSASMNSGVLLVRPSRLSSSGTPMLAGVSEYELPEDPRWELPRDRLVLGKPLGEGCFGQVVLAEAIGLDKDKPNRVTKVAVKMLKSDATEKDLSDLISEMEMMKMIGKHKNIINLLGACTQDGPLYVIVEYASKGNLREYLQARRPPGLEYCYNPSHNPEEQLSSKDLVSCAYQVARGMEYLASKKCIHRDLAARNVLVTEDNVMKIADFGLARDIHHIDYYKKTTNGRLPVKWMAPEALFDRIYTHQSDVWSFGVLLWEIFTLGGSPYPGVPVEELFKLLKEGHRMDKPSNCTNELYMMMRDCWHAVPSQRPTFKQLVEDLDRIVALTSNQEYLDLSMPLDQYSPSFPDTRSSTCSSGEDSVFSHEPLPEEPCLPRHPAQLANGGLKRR
Assay: Inhibition of recombinant FGFR1 (unknown origin)
measured parameter: IC50 (nM)
Return type: number; implicit unit nM.

Field IC50 (entry O=C1c2ccccc2-c2n[nH]c3cccc1c23 ) reads 2400

###

Experiment: AUC in Athymic nu-nu mouse at 10 mg/kg, iv measured upto 24 hrs by LC-MS/MS analysis
Format: ADME, organism-based
Conditions: in vivo
measured parameter: AUC at 24 h (µM·h)
Form entry: value (µM·h) — number only.

Sample CCc1cccc(CC)c1NC(=O)c1nn(C)c2c1CCc1cnc(Nc3ccc(C(=O)NC4CCN(C)CC4)cc3OC(F)(F)F)nc1-2 ; AUC at 24 h observed: 22.4

###

Reported IC50 values follow for various molecules
Target: Tyrosine-protein kinase ZAP-70 (Homo sapiens, UniProt P43403)
Sequence (P43403 whole entry): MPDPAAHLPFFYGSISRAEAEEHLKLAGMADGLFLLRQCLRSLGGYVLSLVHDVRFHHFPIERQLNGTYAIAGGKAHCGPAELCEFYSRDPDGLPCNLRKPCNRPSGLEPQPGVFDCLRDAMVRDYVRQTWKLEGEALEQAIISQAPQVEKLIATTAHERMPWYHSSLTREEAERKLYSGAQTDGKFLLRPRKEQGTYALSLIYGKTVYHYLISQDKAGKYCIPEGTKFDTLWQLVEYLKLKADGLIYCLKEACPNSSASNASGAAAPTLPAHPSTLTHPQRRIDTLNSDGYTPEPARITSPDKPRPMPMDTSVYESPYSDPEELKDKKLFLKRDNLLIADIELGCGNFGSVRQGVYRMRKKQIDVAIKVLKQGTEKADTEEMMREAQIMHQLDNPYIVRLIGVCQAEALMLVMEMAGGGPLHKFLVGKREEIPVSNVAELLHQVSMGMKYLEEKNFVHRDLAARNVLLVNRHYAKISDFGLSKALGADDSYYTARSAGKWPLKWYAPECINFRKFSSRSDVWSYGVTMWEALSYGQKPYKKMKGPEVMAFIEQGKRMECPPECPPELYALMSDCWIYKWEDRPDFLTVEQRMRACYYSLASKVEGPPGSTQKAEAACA
Assay: Inhibition of recombinant ZAP70 (unknown origin)

For reference, reported IC50 for O=C1c2ccccc2-c2n[nH]c3cccc1c23 stands at > 10 µM

More entries:
Notebook: CCc1cccc(CC)c1NC(=O)c1nn(C)c2c1CCc1cnc(Nc3ccc(C(=O)NC4CCN(C)CC4)cc3OC(F)(F)F)nc1-2 , IC50 read as > 10 µM

###

Experiment: Half life in Athymic nu-nu mouse at 100 mg/kg, po measured upto 24 hrs by LC-MS/MS analysis
Assay type: ADME, organism-based
Details: in vivo
measured parameter: half-life (h)
Give just the numeric value; h need not be written.

# half-life of CCc1cccc(CC)c1NC(=O)c1nn(C)c2c1CCc1cnc(Nc3ccc(C(=O)NC4CCN(C)CC4)cc3OC(F)(F)F)nc1-2 = 16.8

###

Target: Tyrosine-protein kinase JAK1 (Homo sapiens, UniProt P23458)
Sequence (P23458 whole entry): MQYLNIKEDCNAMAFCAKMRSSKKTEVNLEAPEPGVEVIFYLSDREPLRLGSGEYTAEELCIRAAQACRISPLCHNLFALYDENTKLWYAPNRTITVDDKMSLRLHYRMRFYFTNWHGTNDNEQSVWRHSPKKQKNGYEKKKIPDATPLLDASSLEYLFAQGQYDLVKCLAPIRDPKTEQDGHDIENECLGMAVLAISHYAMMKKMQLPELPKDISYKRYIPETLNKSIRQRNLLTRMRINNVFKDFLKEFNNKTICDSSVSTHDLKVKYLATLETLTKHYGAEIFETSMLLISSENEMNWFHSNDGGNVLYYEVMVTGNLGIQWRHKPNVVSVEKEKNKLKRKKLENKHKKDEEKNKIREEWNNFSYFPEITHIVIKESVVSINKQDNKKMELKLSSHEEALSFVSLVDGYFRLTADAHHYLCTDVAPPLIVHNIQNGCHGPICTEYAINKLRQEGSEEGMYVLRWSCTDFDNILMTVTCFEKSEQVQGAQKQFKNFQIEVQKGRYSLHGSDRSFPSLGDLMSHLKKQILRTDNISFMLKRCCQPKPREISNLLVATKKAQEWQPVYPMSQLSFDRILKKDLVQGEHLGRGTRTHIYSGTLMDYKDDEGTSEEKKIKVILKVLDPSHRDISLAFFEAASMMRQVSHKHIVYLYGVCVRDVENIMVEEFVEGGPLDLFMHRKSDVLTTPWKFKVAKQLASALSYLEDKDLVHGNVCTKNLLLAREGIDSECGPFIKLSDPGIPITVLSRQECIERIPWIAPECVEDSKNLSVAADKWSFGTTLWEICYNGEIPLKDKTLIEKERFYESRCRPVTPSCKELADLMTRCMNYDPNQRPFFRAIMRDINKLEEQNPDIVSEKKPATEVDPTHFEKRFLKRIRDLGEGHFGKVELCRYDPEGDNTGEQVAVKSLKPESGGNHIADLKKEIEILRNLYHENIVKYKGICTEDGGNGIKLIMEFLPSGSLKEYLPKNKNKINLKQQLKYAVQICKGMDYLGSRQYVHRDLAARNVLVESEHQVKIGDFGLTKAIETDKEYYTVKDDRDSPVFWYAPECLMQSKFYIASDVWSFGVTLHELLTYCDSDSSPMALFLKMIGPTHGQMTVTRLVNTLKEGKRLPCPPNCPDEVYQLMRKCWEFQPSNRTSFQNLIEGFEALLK
Assay: Inhibition of recombinant JAK1 (unknown origin)
measured parameter: pIC50
Remember the convention: pIC50 equals -log10 of concentration in molar.

Given item O=C1c2ccccc2-c2n[nH]c3cccc1c23 , the value recorded as its pIC50 is 5.33

###

Biological target: Protein-tyrosine kinase 6 (Homo sapiens, UniProt Q13882)
Sequence (Q13882 whole entry): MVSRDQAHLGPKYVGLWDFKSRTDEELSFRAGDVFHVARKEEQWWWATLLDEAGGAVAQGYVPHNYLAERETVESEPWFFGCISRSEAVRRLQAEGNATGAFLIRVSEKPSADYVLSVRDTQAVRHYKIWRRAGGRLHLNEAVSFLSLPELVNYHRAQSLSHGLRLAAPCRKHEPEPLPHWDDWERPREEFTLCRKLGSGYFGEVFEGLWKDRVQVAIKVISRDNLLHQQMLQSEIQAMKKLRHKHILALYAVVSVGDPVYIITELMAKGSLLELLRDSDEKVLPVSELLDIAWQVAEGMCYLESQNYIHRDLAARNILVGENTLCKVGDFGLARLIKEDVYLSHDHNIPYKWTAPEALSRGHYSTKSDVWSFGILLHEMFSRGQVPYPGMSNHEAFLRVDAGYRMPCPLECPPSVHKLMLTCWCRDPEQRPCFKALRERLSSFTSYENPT
Test: Inhibition of recombinant BRK (unknown origin)
measured parameter: IC50

IC50 in this record for O=C1c2ccccc2-c2n[nH]c3cccc1c23 : > 10 µM

With those in mind, consider the next compound.
response.value for CCc1cccc(CC)c1NC(=O)c1nn(C)c2c1CCc1cnc(Nc3ccc(C(=O)NC4CCN(C)CC4)cc3OC(F)(F)F)nc1-2 (field: IC50) = > 10 µM

###

System: SW1417
Test: Antiproliferative activity against human SW1417 cells assessed as inhibition of cell growth incubated for 72 hrs by celltiter-glo assay
Format: functional, cell-based
Details: SW1417, 72 h
measured parameter: pIC50
The quantity pIC50 is defined as the negative base-10 logarithm of the molar concentration.

Documented pIC50 of CCc1cccc(CC)c1NC(=O)c1nn(C)c2c1CCc1cnc(Nc3ccc(C(=O)NC4CCN(C)CC4)cc3OC(F)(F)F)nc1-2 : 5.05

###

Assay: Cmax in Athymic nu-nu mouse at 10 mg/kg, po measured upto 24 hrs by LC-MS/MS analysis
Assay type: ADME, organism-based
Settings: in vivo
measured parameter: Cmax (nM)
Number in nM, nothing else.

Quick note, Cmax for CCc1cccc(CC)c1NC(=O)c1nn(C)c2c1CCc1cnc(Nc3ccc(C(=O)NC4CCN(C)CC4)cc3OC(F)(F)F)nc1-2 landed at 600

###

Experiment: AUC in Athymic nu-nu mouse at 100 mg/kg, po measured upto 24 hrs by LC-MS/MS analysis
Format: ADME, organism-based
Conditions: in vivo
measured parameter: AUC at 24 h (µM·h)
Your answer should be a plain number; it is taken to be in µM·h.

AUC at 24 h recorded for this compound, CCc1cccc(CC)c1NC(=O)c1nn(C)c2c1CCc1cnc(Nc3ccc(C(=O)NC4CCN(C)CC4)cc3OC(F)(F)F)nc1-2 , is 50.7

###

System: LP-1
Assay: Antiproliferative activity against human LP-1 cells assessed as inhibition of cell growth incubated for 72 hrs by celltiter-glo assay
Assay type: functional, cell-based
Settings: LP-1, 72 h
measured parameter: IC50 (µM)
Kindly answer with a numeric value in µM, unit omitted.

Reported IC50 ( CCc1cccc(CC)c1NC(=O)c1nn(C)c2c1CCc1cnc(Nc3ccc(C(=O)NC4CCN(C)CC4)cc3OC(F)(F)F)nc1-2 ) = 3.48

###

Reported IC50 values for a set of molecules
Target: Serine/threonine-protein kinase PAK 4 (Homo sapiens, UniProt O96013)
Sequence (O96013 whole entry): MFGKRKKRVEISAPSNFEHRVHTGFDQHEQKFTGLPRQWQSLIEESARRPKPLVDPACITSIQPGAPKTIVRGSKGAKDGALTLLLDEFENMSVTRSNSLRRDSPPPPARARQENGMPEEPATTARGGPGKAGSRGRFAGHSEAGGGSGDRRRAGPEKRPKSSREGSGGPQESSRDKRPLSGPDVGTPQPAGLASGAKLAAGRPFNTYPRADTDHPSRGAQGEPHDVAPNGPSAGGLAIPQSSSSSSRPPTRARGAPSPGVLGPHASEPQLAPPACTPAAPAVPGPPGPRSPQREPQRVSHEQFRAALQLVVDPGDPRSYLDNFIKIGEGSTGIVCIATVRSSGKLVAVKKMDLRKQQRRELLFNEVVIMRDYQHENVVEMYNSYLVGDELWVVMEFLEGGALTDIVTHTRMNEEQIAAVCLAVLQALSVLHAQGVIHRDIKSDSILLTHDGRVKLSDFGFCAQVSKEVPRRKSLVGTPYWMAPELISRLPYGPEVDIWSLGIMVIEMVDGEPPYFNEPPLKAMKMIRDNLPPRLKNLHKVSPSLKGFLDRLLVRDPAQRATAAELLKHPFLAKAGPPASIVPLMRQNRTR
Assay: Inhibition of recombinant PAK4 (unknown origin)

For reference, reported IC50 for CCc1cccc(CC)c1NC(=O)c1nn(C)c2c1CCc1cnc(Nc3ccc(C(=O)NC4CCN(C)CC4)cc3OC(F)(F)F)nc1-2 stands at > 10 µM

***
Form: molecule = O=C1c2ccccc2-c2n[nH]c3cccc1c23 ; IC50 = > 10 µM

###

Tested on: UACC-62
Assay: Antiproliferative activity against human UACC-62 cells assessed as inhibition of cell growth incubated for 72 hrs by celltiter-glo assay
Type: functional, cell-based
Conditions: UACC-62, 72 h
measured parameter: IC50

Consider CCc1cccc(CC)c1NC(=O)c1nn(C)c2c1CCc1cnc(Nc3ccc(C(=O)NC4CCN(C)CC4)cc3OC(F)(F)F)nc1-2 . Its measured IC50 is 4.75 µM

Numbers sourced from ChEMBL document CHEMBL5705893.
